# System: TOV-21G (ovarian)
# assay_procedure: Cancer cell proliferation assay (acid phosphatase)
# Type: cell-based
# assay_setup: Homo sapiens, TOV21G, 72 h, Table 6A; 72 hrs; heading: TOV-21G IC50; read-out: TOV-21G IC50
outcome_measure: IC50 (nM)
Give bare numbers, in nM.

So, Cc1ccccc1C(=O)Nc1nc(NC(=O)c2ccccc2C)n(-c2ccc(N3CCN(C(=O)OC(C)(C)C)CC3)cc2)n1 ? Its IC50 was 938

====

# target_system: UniProt O60260
# Sequence (O60260 whole entry): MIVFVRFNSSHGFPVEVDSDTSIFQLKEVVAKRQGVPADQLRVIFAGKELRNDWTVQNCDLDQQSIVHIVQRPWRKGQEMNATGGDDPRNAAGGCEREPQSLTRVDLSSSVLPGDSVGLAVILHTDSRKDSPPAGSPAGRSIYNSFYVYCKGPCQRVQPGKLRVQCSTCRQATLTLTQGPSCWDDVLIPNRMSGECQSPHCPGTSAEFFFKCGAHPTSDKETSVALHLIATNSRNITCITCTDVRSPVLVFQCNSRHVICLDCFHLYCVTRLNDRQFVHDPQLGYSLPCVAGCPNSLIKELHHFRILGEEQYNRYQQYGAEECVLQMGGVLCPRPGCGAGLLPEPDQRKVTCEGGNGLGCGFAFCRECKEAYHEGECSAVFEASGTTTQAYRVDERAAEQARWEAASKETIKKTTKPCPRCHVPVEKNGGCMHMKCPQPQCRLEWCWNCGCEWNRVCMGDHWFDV
# assay_procedure: Activity-Based Probe Assay using Ubiquitin vinyl sulfone probe (TR-FRET)
# Format: biochemical
# assay_setup: heat activated Parkin, HA-Ub-VS probe, activation EC50; read-out: Probe Assay EC50 (μM) [Example 2]
Label YES when EC50 is strictly below 2 µM; at or above that, label NO.

Q) Lab note: confirm whether the reported EC50 for this molecule is below 2 µM, equality not counting. molecule: Cc1ccccc1C(=O)Nc1nc(NCc2ccccc2)nn1-c1ccccc1
A) NO

Q) Lab note: confirm whether the reported EC50 for this molecule is below 2 µM, equality not counting. molecule: Cc1ccccc1C(=O)Nc1nc(-c2ccccc2O)nn1-c1ccc(OC(F)(F)F)cc1
A) NO

Q) Lab note: confirm whether the reported EC50 for this molecule is below 2 µM, equality not counting. molecule: O=C(Nc1nc(NC(=O)c2cccnc2)n(-c2ccccc2)n1)c1cccnc1
A) YES

Q) Lab note: confirm whether the reported EC50 for this molecule is below 2 µM, equality not counting. molecule: Cc1ccccc1C(=O)Nc1nc(-c2ccc(F)cn2)nn1-c1ccccc1
A) NO

Q) Lab note: confirm whether the reported EC50 for this molecule is below 2 µM, equality not counting. molecule: c1ccc(-n2nc(NCc3ccccn3)nc2NCc2ccccn2)cc1
A) NO

Next:
Q) Lab note: confirm whether the reported EC50 for this molecule is below 2 µM, equality not counting. molecule: Cc1ccccc1C(=O)Nc1nc(-c2cccc[n+]2[O-])nn1-c1ccccc1
A) NO

Q) Lab note: confirm whether the reported EC50 for this molecule is below 2 µM, equality not counting. molecule: Cc1ccccc1C(=O)Nc1nc(NC(=O)C2CCN(CCC#N)CC2)nn1-c1ccccc1
A) NO

Q) Lab note: confirm whether the reported EC50 for this molecule is below 2 µM, equality not counting. molecule: Cc1cccc(-n2nc(NC(=O)c3ccccc3C)nc2NC(=O)c2ccccc2C)c1
A) NO

Q) Lab note: confirm whether the reported EC50 for this molecule is below 2 µM, equality not counting. molecule: Cc1ccccc1C(=O)Nc1nc(NC(=O)C2CCCNC2)n(-c2ccccc2)n1 (centres unmarked)
A) NO

Q) Lab note: confirm whether the reported EC50 for this molecule is below 2 µM, equality not counting. molecule: COc1ccc(CNc2nc(NC(=O)c3ccccc3C)n(-c3ccc(OC(F)(F)F)cc3)n2)cc1
A) YES

====

# target_system: CYP2C9 (Homo sapiens)
# Sequence (P11712 whole entry): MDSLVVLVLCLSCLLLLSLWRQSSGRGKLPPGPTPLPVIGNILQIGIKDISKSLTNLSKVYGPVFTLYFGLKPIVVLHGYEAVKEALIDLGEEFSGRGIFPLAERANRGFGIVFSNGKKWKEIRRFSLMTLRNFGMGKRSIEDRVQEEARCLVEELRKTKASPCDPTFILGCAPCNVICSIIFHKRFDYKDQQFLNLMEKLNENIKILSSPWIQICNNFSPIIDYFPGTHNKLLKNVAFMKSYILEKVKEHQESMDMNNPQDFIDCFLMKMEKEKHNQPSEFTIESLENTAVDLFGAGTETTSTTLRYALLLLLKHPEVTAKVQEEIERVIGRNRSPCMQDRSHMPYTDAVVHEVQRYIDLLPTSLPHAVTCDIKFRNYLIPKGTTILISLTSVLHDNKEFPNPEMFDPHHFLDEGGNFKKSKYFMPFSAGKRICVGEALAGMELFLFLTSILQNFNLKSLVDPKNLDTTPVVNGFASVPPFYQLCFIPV
# assay_procedure: CYP inhibition assay
# Assay type: in vitro ADME
# assay_setup: read-out: % Inhibition at 30 μM CYP 2C9
outcome_measure: inhibition at 30 μM (%)
One number for each entry, in %.

So, Cc1ccccc1C(=O)Nc1nc(NC(=O)c2ccccc2C)n(-c2ccc(OC(F)(F)F)cc2)n1 ? Its inhibition at 30 μM was 11.8

====

# assay_procedure: Oral bioavailability (PO) and pharmacokinetics assay
# Format: in vivo, mice
# assay_setup: male, Sprague-Dawley, plasma; mouse, IV bolus (3 mg/kg)
# Method: The pharmacokinetics and oral bioavailability of various compounds was evaluated following IV or PO administration to fasted male Sprague-Dawley mice (N=3/route/dose). […] Blood samples (0.250 mL) were collected into EDTA tubes then processed to generate plasma samples. […] Plasma concentrations of each compound were determined using LC-MS/MS with a lower limit of quantitation of 1.0 ng/mL. The pharmacokinetic parameters were determined by non-compartmental methods using WinNonlin. […]
outcome_measure: clearance
Reply with a number, then the unit it belongs to.

So, Cc1ccccc1C(=O)Nc1nc(NC(=O)c2ccccc2C)n(-c2ccc(OC(F)(F)F)cc2)n1 ? Its clearance was 1.49 mL/min/kg

Origin of values: patent US10889553B2
